EXPERIMENTAL_SYSTEM: T1, human dimeric EGFR (EGFR.mFc) (human)
T1 construct: Soluble dimeric EGFR construct
ASSAY_DETAILS: SPR 37C, mAb captured by anti-human Fc, EGFR.mFc analyte
Method: Different concentrations of human monomeric (EGFR.mmh; SEQ ID NO:386) and dimeric (EGFR.mFc; SEQ ID NO:387) proteins were injected over the anti-EGFR monoclonal antibody captured surface at a flow rate of 50 μI/min. Antibody-antigen association was monitored for 4-5 minutes while dissociation of antigen from the captured monoclonal antibody surface was monitored for 10 min. […]
Kd under 0.07 nM gets t, anything at or over 0.07 nM gets f.

BINDER	ANSWER_LABEL
H1H171P (antibody, human IgG1, V domains shown, Human IgG1 Fc (H1H)) VH: QVQLVESGGGVVQPGRSLRLSCAASGFTFSIYGMNWVRQGPGKGLDWVAVISDDGSNKDYVDSVRGRFTISRDNSKNTLYLQMNSLSAEDTAVYYCAKDRITGTHYYGMDVWGQGTTVTVSS VL: DIQMTQSPSSLSASVGDRITITCRASQDIANYLAWFQQKPGNAPTSLIYAASILQSGVPSKFSGSGSGTDFTLTITSLQPEDFASYYCQQYNRKPWTFGRGTKVEIK	f
H1H102N (antibody, human IgG1, V domains shown, Tested in human IgG1 Fc format (H1H); also called H1M102N) VH: QVQLQESGPGLVQPSQTLSLTCTVSGGSVSSGDYYWSWIRQHPGKGLEWIGHIYYSGITYYNPSLESRVTITLDTSKNQFSLNLRSVTAADTAVHYCARTAIIGTMDNWGRGTLVTVSS VL: EIVMTQSPATLSVSPGERATLSCRASQSVSSNLAWYQQKPGQAPRLLIYDASTRATGFPARFSGSGSGTEFTLTISSLQSEDFAVYYCQQYNTWWTFGQGTKVEIK	t
H1H142P (antibody, human IgG1, V domains shown, Human IgG1 Fc (H1H)) VH: QVQLQESGPGLVKPSQTLSLTCTVSGGSISSGDYYWNWIRQYPGKGLELIGYIYYSGITYYNPSLKSRLTISLDTSKNQFSLKLSSVTAADTAVYYCARDRVELRAFDIWGQGTMVTVSS VL: DIQMTQSPSSLSASIGDRITISCQASQDINNYLNWYQQKPGKAPKLLIYDASNLETGIPSRFSGSGSGTDFTFTISGLQPEDIATYYCQHYDSLPLTFGQGTRLEIK	t

Input: I'd appreciate it if you could check whether H1H155P (antibody, human IgG1, V domains shown, Human IgG1 Fc (H1H)) VH: QVQLVESGGGVVQPGRSLRLSCAASGFTFSIYGMHWVRQAPGKGLEWVTVISDDGSKKYYVDSVKGRFTLSRDNSKNTLYLQMNSLRAEDTAVYYCARDRITGTNWYGMDVWGQGTTVTVSS VL: DIQMTQSPSSLSASVGDRVTITCRASQDISNYLAWFQQKPGKAPKSLIFAASSLQSGGPSKFSGSGSGTDFTLTISSLQPEDFATYYCQQYNRYPFTFGPGTKVDIK has Kd smaller than 0.07 nM.
Output: f

Input: I'd appreciate it if you could check whether H1H086N (antibody, human IgG1, V domains shown, Tested in human IgG1 Fc format (H1H); also called H1M086N) VH: EVQLVESGGGLVQPGRSLRLSCAASGFTFDDYAMHWVRQAPGKGLEWVSGINWNSDKIAYADSVKGRFTISRDNAENSLFLQMNSLRPEDTALYYCVKRGDFWTDYYDYWGQGTLVTVSS VL: DIVMTQSPLSLPVTPGEPASISCRSSQSLLHSNGYNYLDWYLQKPGQSPHLLIYLVSTRASGVPDRFSGSGSGTDFTLKISRVEAEDVGVYYCMQALQTPWTFGQGTKVEIK has Kd smaller than 0.07 nM.
Output: t
